Values compiled from PubChem BioAssay AID463074.

List of AC50 values.
# Tested on: HMLE_sh_eGFP viability, CellTiter-Glo luminescence, 72 h
# PROTOCOL DETAILS: cytotoxicity in HMLE control line with eGFP shRNA, dose response, counter-screen for HMLE_sh_ECad selective toxicity project, cell-based, HMLE_sh_eGFP, luminescence (AID 463074);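 also: counterscreen control line to flag general toxicity for the HMLE_sh_ECad screen; potency for loss of viability as luminescence drops below DMSO wells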
Active and inactive are the calls of the source.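 The calls were made as follows: active = AC50 no more than tenfold above the top dose tested, or full inhibition at every dose with a flat fit (cut at about 19 µM in these data); inconclusive = flat curve fit with inhibition between 30% and 70%, or poor fit; inactive = AC50 more than tenfold above the top dose tested.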
MEASURED PARAMETER: AC50

[[record]]
compound = "CCOC(=O)C1=C(C)NC(C)=C(C(=O)OCC)C1c1ccccc1/C=C/C(=O)OC(C)(C)C"
measured_parameter = "AC50"
reported = "4.67 µM"

[[record]]
compound = "CC(C)Oc1ccc(CNC(=O)CC(c2ccccc2)c2cc(Cl)ccc2O)cc1 (stereo not given)"
measured_parameter = "AC50"
reported = "5.58 µM"

[[record]]
compound = "Cc1cc(C)cc(NS(=O)(=O)c2ccc3[nH]cc(C(=O)NCc4ccco4)c(=O)c3c2)c1"
measured_parameter = "AC50"
reported = "1.5 µM"

[[record]]
compound = "CSc1nnc(NC(=O)c2nc(S(=O)(=O)Cc3ccccc3F)ncc2Cl)s1"
measured_parameter = "AC50"
reported = "2.92 µM"

[[record]]
compound = "O=C1NC(=Nc2ccc(Cl)cc2)SC1Cc1cccc(Cl)c1Cl (stereo not given)"
measured_parameter = "AC50"
reported = "> 19.5 µM (inactive)"


====

# System: HMLE_sh_eGFP viability, CellTiter-Glo luminescence, 72 h
# PROTOCOL DETAILS: cytotoxicity in HMLE control line with eGFP shRNA, dose response, counter-screen for HMLE_sh_ECad selective toxicity project, cell-based, HMLE_sh_eGFP, luminescence (AID 463074)
Activity calls are given as the source filed them.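 How the source made its calls: active means AC50 no more than tenfold above the top dose tested, or full inhibition at every dose with a flat fit (cut at about 19 µM in these data); inconclusive means flat curve fit with inhibition between 30% and 70%, or poor fit; inactive means AC50 more than tenfold above the top dose tested.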
Labels: Y for active, N for inactive

[[record]]
compound = "C=C(CC[C@@H](O)C(C)(C)O)[C@H]1CC[C@]2(C)[C@@H]1CCC1[C@@]3(C)CC[C@H](O)C(C)(C)C3CC[C@]12C (stereo partly specified)"
class_assignment = "Y"

[[record]]
compound = "O=C1C=C(c2cccs2)C[C@H](c2ccccc2)[C@H]1n1nnc([N+](=O)[O-])n1"
class_assignment = "Y"

[[record]]
compound = "C=CCn1c(Sc2ncc([N+](=O)[O-])s2)n[nH]c1=O"
class_assignment = "Y"

[[record]]
compound = "CC(C)n1cnc2c(NCc3ccccc3)cc(Cc3ccc(F)cc3)cc21"
class_assignment = "Y"

[[record]]
compound = "O=[N+]([O-])c1ccc(N/N=C/c2c[nH]c3ccccc23)c(S(=O)(=O)Nc2ccc(Cl)cc2)c1"
class_assignment = "Y"

[[record]]
compound = "CCCCn1c(SCC(N)=O)nc2sc3c(c2c1=O)CCC3"
class_assignment = "N"

[[record]]
compound = "CCOC(=O)c1ccc(NC(=O)c2nc[nH]c2C(=O)NCCCCNC(=O)c2[nH]cnc2C(=O)Nc2ccc(C(=O)OCC)cc2)cc1"
class_assignment = "Y"

[[record]]
compound = "COc1ccc(NC(=O)c2ccc(COc3ccccc3Br)o2)cc1OC"
class_assignment = "Y"

[[record]]
compound = "CC[C@@H]1CC=C[C@H]2[C@H]1C(=O)N(Cc1ccccc1)[C@H]2c1ccoc1"
class_assignment = "Y"

[[record]]
compound = "COc1cccc(NP(=O)(Oc2ccccc2)Oc2ccccc2)c1"
class_assignment = "Y"

[[record]]
compound = "CCCCNc1c(-c2ccc(OC)c(SC3CCCCC3)c2)nc2cc(C)ccn12"
class_assignment = "Y"

[[record]]
compound = "Cc1ccc(Nc2cc(C)nc(NCc3ccccc3)n2)cc1"
class_assignment = "Y"

[[record]]
compound = "C=CCNCCCOc1ccc(Cl)cc1C(C)(C)C"
class_assignment = "Y"

[[record]]
compound = "CC(C)OCCCNC(=O)c1c(N)n(Cc2cccs2)c2nc3ccccc3nc12"
class_assignment = "Y"

[[record]]
compound = "Cc1nc([N+](=O)[O-])c(Br)n1CC(=O)c1ccc2ccccc2c1"
class_assignment = "Y"

[[record]]
compound = "C/C(=N\\NC(=S)NC(C)C)c1ccc(C(C)(C)C)cc1"
class_assignment = "Y"

[[record]]
compound = "CC(C)N1C(=O)/C(=C\\c2nc3ccccc3c(=O)n2-c2ccccc2)c2ccccc21"
class_assignment = "Y"

[[record]]
compound = "CCN(CC)c1ccc2cc(S(=O)(=O)c3ccc(Cl)cc3)c(=O)oc2c1"
class_assignment = "Y"

[[record]]
compound = "C=C(C)COc1ccc(-c2n[nH]c(C)c2-c2ccc(OC)cc2)c(O)c1"
class_assignment = "Y"

[[record]]
compound = "O=C(CSc1ncnc2nc[nH]c12)c1ccc(Cl)cc1"
class_assignment = "Y"

[[record]]
compound = "Cc1ccnc(Nc2nc(-c3ccc(O)cc3O)cs2)c1"
class_assignment = "Y"


====

List of AC50 values.
# Test system: HMLE_sh_eGFP viability, CellTiter-Glo luminescence, 72 h
# PROTOCOL DETAILS: cytotoxicity in HMLE control line with eGFP shRNA, dose response, counter-screen for HMLE_sh_ECad selective toxicity project, cell-based, HMLE_sh_eGFP, luminescence (AID 463074);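 also: counterscreen control line to flag general toxicity for the HMLE_sh_ECad screen; potency for loss of viability as luminescence drops below DMSO wells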
MEASURED PARAMETER: AC50

[[record]]
molecule = "O=C(CSc1ncnc2nc[nH]c12)Nc1nnc(SCc2ccc(Cl)c(Cl)c2)s1"
reported = "7.45 µM"

[[record]]
molecule = "COc1cc2c(-c3ccc(O)cc3)nc3c(c(C)nn3-c3ccccc3)c2cc1OC"
reported = "3.92 µM"

[[record]]
molecule = "Cc1cccc(CNc2ccc(C(CC(N)=O)NC(=O)Cc3cccc4ccccc34)cc2[N+](=O)[O-])c1 (stereo not given)"
reported = "13.7 µM"

[[record]]
molecule = "CC(C)C1C(c2ccccc2)N(C)C(c2ccccc2)CC1(O)c1ccccc1 (stereo not given)"
reported = "3.35 µM"

[[record]]
molecule = "NC(=O)CC(NC(=O)Cc1ccc(Br)cc1)c1ccc(NCc2cc(F)ccc2F)c([N+](=O)[O-])c1 (stereo not given)"
reported = "3.36 µM"


====

List of AC50 values.
# Tested on: HMLE_sh_eGFP viability, CellTiter-Glo luminescence, 72 h
# PROTOCOL DETAILS: cytotoxicity in HMLE control line with eGFP shRNA, dose response, counter-screen for HMLE_sh_ECad selective toxicity project, cell-based, HMLE_sh_eGFP, luminescence (AID 463074);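 also: counterscreen control line to flag general toxicity for the HMLE_sh_ECad screen; potency for loss of viability as luminescence drops below DMSO wells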
MEASURED PARAMETER: AC50

[[record]]
compound = "Cc1ccc(-c2cc(C(=O)N3N=C(C(F)F)CC3(O)C(F)F)c3ccccc3n2)cc1C (stereo not given)"
experimental_system = "HMLE_sh_eGFP viability, CellTiter-Glo luminescence, 72 h"
reported = "4.55 µM"

[[record]]
compound = "COc1cccc(NP(=O)(Oc2ccc(Cl)cc2)Oc2ccc(Cl)cc2)c1"
experimental_system = "HMLE_sh_eGFP viability, CellTiter-Glo luminescence, 72 h"
reported = "5.83 µM"

[[record]]
compound = "CN(C)CCNC(=O)/C(=C/c1ccc(-c2ccc(Cl)cc2Cl)o1)NC(=O)c1ccccc1"
experimental_system = "HMLE_sh_eGFP viability, CellTiter-Glo luminescence, 72 h"
reported = "4.78 µM"

[[record]]
compound = "Fc1ccc(CSc2nc3ccccc3[nH]2)c2ccccc12"
experimental_system = "HMLE_sh_eGFP viability, CellTiter-Glo luminescence, 72 h"
reported = "5.51 µM"

[[record]]
compound = "O=[N+]([O-])c1cccnc1N1CCC(c2cc(-c3cccc(C(F)(F)F)c3)n[nH]2)CC1"
experimental_system = "HMLE_sh_eGFP viability, CellTiter-Glo luminescence, 72 h"
reported = "3.56 µM"

[[record]]
compound = "O=[N+]([O-])c1ccc(O)c(-c2nc(-c3ccccc3)c(-c3cccs3)[nH]2)c1"
experimental_system = "HMLE_sh_eGFP viability, CellTiter-Glo luminescence, 72 h"
reported = "1.69 µM"

[[record]]
compound = "Cc1cccc(CN2CCN(C(c3ccccc3)c3ccc(Cl)cc3)CC2)c1 (stereo not given)"
experimental_system = "HMLE_sh_eGFP viability, CellTiter-Glo luminescence, 72 h"
reported = "4.76 µM"

[[record]]
compound = "COc1ccc(-c2oc3c4c(cc(OC)c3c(=O)c2CC=C(C)C)OC(C)(C)C=C4)c(OC)c1"
experimental_system = "HMLE_sh_eGFP viability, CellTiter-Glo luminescence, 72 h"
reported = "7.18 µM"

[[record]]
compound = "CCN(CC)CCOc1ccc(/C(=C(\\Cl)c2ccccc2)c2ccccc2)cc1"
experimental_system = "HMLE_sh_eGFP viability, CellTiter-Glo luminescence, 72 h"
reported = "1.55 µM"

[[record]]
compound = "Oc1ccccc1-n1c(-c2ccccc2)ccc1-c1ccccc1"
experimental_system = "HMLE_sh_eGFP viability, CellTiter-Glo luminescence, 72 h"
reported = "7.62 µM"


====

# Test system: HMLE_sh_eGFP viability, CellTiter-Glo luminescence, 72 h
# PROTOCOL DETAILS: cytotoxicity in HMLE control line with eGFP shRNA, dose response, counter-screen for HMLE_sh_ECad selective toxicity project, cell-based, HMLE_sh_eGFP, luminescence (AID 463074);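 also: counterscreen control line to flag general toxicity for the HMLE_sh_ECad screen; potency for loss of viability as luminescence drops below DMSO wells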
The source made the active and inactive calls.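 How the source made its calls: active means AC50 no more than tenfold above the top dose tested, or full inhibition at every dose with a flat fit (cut at about 19 µM in these data); inconclusive means flat curve fit with inhibition between 30% and 70%, or poor fit; inactive means AC50 more than tenfold above the top dose tested.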
Labels: class 1 for active, class 0 for inactive

[[record]]
compound = "Cc1cc(C)nc(NC(=O)/C=C/c2cccs2)c1"
experimental_system = "HMLE_sh_eGFP viability, CellTiter-Glo luminescence, 72 h"
class_assignment = "class 0"

[[record]]
compound = "N/C(=N\\N=C/c1ccc(Br)cc1)N/N=C\\c1ccc(Br)cc1"
experimental_system = "HMLE_sh_eGFP viability, CellTiter-Glo luminescence, 72 h"
class_assignment = "class 1"

[[record]]
compound = "COc1cccc(/C=N/Nc2ncc(C(F)(F)F)cc2Cl)c1O"
experimental_system = "HMLE_sh_eGFP viability, CellTiter-Glo luminescence, 72 h"
class_assignment = "class 1"

[[record]]
compound = "COC(=O)c1c(NC(=O)c2ccccc2)sc2c1CC(C)(C)OC2"
experimental_system = "HMLE_sh_eGFP viability, CellTiter-Glo luminescence, 72 h"
class_assignment = "class 0"

[[record]]
compound = "CN(C(=O)COC(=O)/C=C/c1cccc([N+](=O)[O-])c1)C1CCS(=O)(=O)C1 (stereo unspecified)"
experimental_system = "HMLE_sh_eGFP viability, CellTiter-Glo luminescence, 72 h"
class_assignment = "class 1"

[[record]]
compound = "COc1cc2c(cc1NC(=O)c1cccc(S(=O)(=O)N(C)C)c1)oc1ccccc12"
experimental_system = "HMLE_sh_eGFP viability, CellTiter-Glo luminescence, 72 h"
class_assignment = "class 1"

[[record]]
compound = "O=Nc1c(O)n(Cc2ccc(Cl)cc2Cl)c2ccccc12"
experimental_system = "HMLE_sh_eGFP viability, CellTiter-Glo luminescence, 72 h"
class_assignment = "class 1"

[[record]]
compound = "C[C@]12CC[C@H]3C(CCC4(O)CC(O)CC[C@]34C=O)C1=CC[C@H]2c1ccc(=O)oc1 (stereo partly specified)"
experimental_system = "HMLE_sh_eGFP viability, CellTiter-Glo luminescence, 72 h"
class_assignment = "class 1"

[[record]]
compound = "COc1cccc(-c2sc3ccccc3c2-c2ccc(OCCN3CCCCC3)cc2)c1"
experimental_system = "HMLE_sh_eGFP viability, CellTiter-Glo luminescence, 72 h"
class_assignment = "class 1"

[[record]]
compound = "Cc1cc(NC(=O)c2cc(-c3ccncc3)nc3ccccc23)ccc1Br"
experimental_system = "HMLE_sh_eGFP viability, CellTiter-Glo luminescence, 72 h"
class_assignment = "class 1"

[[record]]
compound = "CCOC(=O)c1c(NC(=O)c2nn(CC)cc2Br)sc2c1CCCCC2"
experimental_system = "HMLE_sh_eGFP viability, CellTiter-Glo luminescence, 72 h"
class_assignment = "class 1"

[[record]]
compound = "CC(=O)Nc1ccc(SC[C@H](C)CN2CC[C@H](C(C)(C)C)CCC2=O)cc1"
experimental_system = "HMLE_sh_eGFP viability, CellTiter-Glo luminescence, 72 h"
class_assignment = "class 1"

[[record]]
compound = "COc1ccc2c(C)nc(Nc3nc(C)c(C)c(=O)[nH]3)nc2c1"
experimental_system = "HMLE_sh_eGFP viability, CellTiter-Glo luminescence, 72 h"
class_assignment = "class 1"

[[record]]
compound = "O=C1C=C(c2ccc(Cl)c(C(F)(F)F)c2)C[C@@H](c2ccc3c(c2)OCO3)C1"
experimental_system = "HMLE_sh_eGFP viability, CellTiter-Glo luminescence, 72 h"
class_assignment = "class 1"

[[record]]
compound = "CC(=O)c1ccc(N2CCN(c3ccc(S(=O)(=O)NCCCN(C)C)cc3[N+](=O)[O-])CC2)cc1"
experimental_system = "HMLE_sh_eGFP viability, CellTiter-Glo luminescence, 72 h"
class_assignment = "class 1"

[[record]]
compound = "O=C(/C=C/c1cc2ccccc2o1)c1ccccc1O"
experimental_system = "HMLE_sh_eGFP viability, CellTiter-Glo luminescence, 72 h"
class_assignment = "class 1"

[[record]]
compound = "Cc1sc2ncnc(N3CCC(C(=O)N(C)CC(=O)Nc4ccc(Cl)c(C(F)(F)F)c4)CC3)c2c1C"
experimental_system = "HMLE_sh_eGFP viability, CellTiter-Glo luminescence, 72 h"
class_assignment = "class 1"

[[record]]
compound = "CCc1nc(N2CCN(Cc3ccc4c(c3)OCO4)CC2)c2oc3ccccc3c2n1"
experimental_system = "HMLE_sh_eGFP viability, CellTiter-Glo luminescence, 72 h"
class_assignment = "class 1"

[[record]]
compound = "COc1ccc(CCNc2cc(C)nc3c(-c4ccc(Cl)cc4)c(C)nn23)cc1OC"
experimental_system = "HMLE_sh_eGFP viability, CellTiter-Glo luminescence, 72 h"
class_assignment = "class 1"

[[record]]
compound = "O=[N+]([O-])c1cccc(C2NCC(c3ccccc3Cl)c3c2[nH]c2ccccc32)c1 (stereo unspecified)"
experimental_system = "HMLE_sh_eGFP viability, CellTiter-Glo luminescence, 72 h"
class_assignment = "class 1"

[[record]]
compound = "CC(=O)Nc1ccc(NC(=O)c2nc(S(=O)(=O)Cc3cccc(C)c3)ncc2Cl)cc1"
experimental_system = "HMLE_sh_eGFP viability, CellTiter-Glo luminescence, 72 h"
class_assignment = "class 1"

